- Tested on: NCI/ADR-RES ovarian
- test: NCI-60 one-dose screen, 48 h (100 = growth as untreated, 0 = no growth, -100 = all killed)
- test_conditions: 10 µM unless noted
This is part of a sample that, as a whole, favours compounds with a hit. Of some 83,000 tested, about 20% had one in any assay.
quantity_kind: growth (%)
Reply with just the number (in %).

Ask | Tell me the measured growth of `S=C(c1ccc2c(c1)OCO2)N1CCN(c2cccc(Cl)c2)CC1` , please.
Reply | -13

Ask | Check `CC1(C)CC[C@]2(CO)CC[C@]3(C)[C@H](CC[C@@H]4[C@@]5(C)CCCNC(C)(C)[C@@H]5CC[C@]43C)[C@H]2[C@H]1O` too.
Reply | 93.1

Ask | Follow-up item: `Nn1c(=O)c(=O)[nH]c2c(cnn2-c2ccccc2)c1=O`
Reply | 106

Ask | // same read-out, input: `O=c1nc(-c2ccccc2)c2cc(-c3ccc(C(F)(F)F)nc3)ccc2[nH]1`
Reply | 98.4

Ask | Thanks! And `O=C(NNC(=O)c1nc2cc(F)ccc2n2cccc12)c1cnccn1` ?
Reply | 20.8

Ask | Now consider `O=C(Cc1ccc(NC(=O)c2cccc(Cl)c2)cc1)NCc1ccccc1` and answer again.
Reply | 50.5

Ask | Entry `CNC(=O)c1cc(Oc2ccc3c(c2)sc2nc(-c4ccc(OC)cc4)cn23)ccn1` please
Reply | 71.3

Ask | Entry to check: `CCN(CC)Cc1cc(Nc2ccnc3cc(Cl)ccc23)ccc1O`
Reply | 93.9

Ask | Moving on to `CCOC(=O)c1c(C)nc2c(c1N)CC(=O)N2Cc1ccc(OC)cc1`
Reply | 34.4

Ask | Now consider `CCNC(=O)Oc1ccc(/C(=C(/CC)Cc2ccccc2)c2ccc(OCCN3CCCC3)cc2)cc1` and answer again.
Reply | 97.9

Ask | What do you get for `CS(=O)(=O)Nc1cc(-c2ccc3ncc(C#N)c(Nc4ccc(F)c(Cl)c4)c3c2)cnc1Cl` ?
Reply | 21.9

Ask | Proceed to `Cc1nc2cc(O)c(O)cc2cc1Oc1ccc(NC(=O)Nc2ccc(Cl)c(Cl)c2)cc1`
Reply | 59

Ask | Also check `COc1cc(OC)c(C(=O)C(CN(C)C)CN(C)C)cc1OC`
Reply | 94.3

Ask | Next compound up: `Fc1ccc(Cn2cc(CSc3nc4ccccc4o3)nn2)cc1`
Reply | 109

Ask | Would you mind doing `CN(C)c1ccc(/C=C(\C#N)c2cc3ccccc3[nH]2)cc1` as well?
Reply | 10.8

Ask | Would you kindly repeat that for `COc1cccc(Nc2ncnc3cc(NC(=O)CCl)ccc23)c1` ?
Reply | -26.4

Ask | Same for `CS(=O)(=O)c1nnc(-c2ccccc2)s1`
Reply | 104

Ask | Follow-up item: `CCN1CCN(c2cc(C)nc(N(CCNc3ccnc4cc(Cl)ccc34)Cc3ccc4c(c3)OCO4)n2)CC1`
Reply | -13.9

Ask | Now the compound `N#Cc1cncc(-c2ccc3ncnc(Nc4cccc(Cl)c4)c3c2)c1`
Reply | 72.8

Ask | Entry COc1ccc(C2=NN(C(C)=O)C(c3cn(-c4ccccc4)nc3-c3ccc(Cl)cc3)C2)cc1 (stereo unspecified) please
Reply | 15.3

Ask | // same read-out, input: `NC(N)=NS(=O)(=O)c1ccc(NC2=C(I)C(=O)c3ncccc3C2=O)cc1`
Reply | 94.1

----------
- System: MDA-MB-435 melanoma
- test: NCI-60 one-dose screen, 48 h (100 = growth as untreated, 0 = no growth, -100 = all killed)
- test_conditions: 10 µM unless noted
About 83,000 compounds went through this panel and 20% of them were active in at least one assay; those are over-represented in the sample as a whole.
quantity_kind: growth (%)
Quick reminder: number only, in %, skip the unit.

Ask | Fill in the blank: the reported growth of `Cc1ccnc(Nc2ccc([N+](=O)[O-])c(NCCN3CCOCC3)n2)c1` is ____.
Reply | -20.5

Ask | Follow-up item: `CN(CCCNC(=O)CCOCCOCCOCCNC(=O)Cc1ccc2ccc3cccc4ccc1c2c34)CCCNc1cc(-c2ccc3ccccc3c2)nc2ccccc12`
Reply | -79.6

Ask | Moving on to `COC1=C(C)C(=O)N2[C@@H]1[C@H](c1ccccc1)OC21C=CC(=O)C=C1`
Reply | -48.8

Ask | Moving on to the next molecule: `CCCCNc1nnc2n(Cc3ccccc3)c(=O)c3c4c(sc3n12)CCCC4`
Reply | 51.8

Ask | Now consider CCCn1nc(C(=O)N(C)Cc2ccccc2)c2c1CCC(N1CCc3ccccc31)C2 (centres undefined) .
Reply | 106

Ask | Same question, CC[N+]1(CC)CC[N+]2(CCCC(C)CC2)CC1 (centres undefined) this time
Reply | 110

Ask | One more molecule: `CC1(C)N=C(N)N=C(N)N1c1ccc(CCCCc2ccccc2)c(Cl)c1`
Reply | 27.8

Ask | // repeat for `O=c1c2c3c(sc2n2c(-c4cc(-c5ccccc5)no4)nnc2n1Cc1ccccc1)CCCC3` and report
Reply | 106

Ask | Field entry: `CCOC(=O)c1c(C)nc2ccccc2c1/C=C/c1cccs1`
Reply | 88.7

Ask | Now consider `O=C1c2ccccc2C(=O)c2c1cc1c(c2[N+](=O)[O-])OCO1` .
Reply | 56.3

Ask | What do you get for `Cc1ccc(C=C2C(=O)NC(=O)NC2=O)cc1` ?
Reply | 109

Ask | Moving on to `C=C1C(=O)O[C@H]2[C@H]1CC/C(COC(=O)c1ccc(C(=O)O)s1)=C\CC[C@@]1(C)O[C@@H]21`
Reply | 11.7

Ask | Another molecule to look at: `CCc1ccc(CCC(=O)Nc2ncc(Cc3cc(Cl)ccc3Cl)s2)o1`
Reply | -42.6

Ask | Same read-out for `CCCCNc1cc(-c2cn[nH]c2-c2cc(C)cc(OC)c2)nc(-c2cccnc2)n1` ?
Reply | 92.1

Ask | Now the molecule `C#CCOc1cccc(-c2ncnc3cc(NC(=O)C=C)ccc23)c1`
Reply | 30

Ask | Same question, `COc1ccc(-c2n[nH]c(=O)c3nc(NC(=S)Nc4ccc(Oc5ccccc5)cc4)sc23)cc1` this time
Reply | 97.3

Ask | Another molecule to look at: CN(C)CCCC1(c2ccc(F)cc2)OCc2cc(-c3cc4ccccc4s3)ccc21 (centres undefined)
Reply | -84.4

Ask | `C#CCO[C@H]1CC(CC#C)(CC#C)C(=O)[C@@H]2[C@H]1[C@H]1C[C@@H]3[C@@]4(C)CCC[C@@](C)(C(=O)OC)[C@@H]4CC[C@@]23C=C1C(C)C` , same question.
Reply | 100

Ask | And then `CCOC(=O)c1c(C)nc2c(c1N)/C(=C/c1ccc(OC)cc1)C(=O)N2Cc1ccccc1` , what is it?
Reply | 63.4

----------
- Test system: U251 CNS
- test: NCI-60 one-dose screen, 48 h (100 = growth as untreated, 0 = no growth, -100 = all killed)
- test_conditions: 10 µM unless noted
This is part of a sample that, as a whole, favours compounds with a hit. Of some 83,000 tested, about 20% had one in any assay.
The label label 1 is reserved for growth strictly under 50%; label 0 covers values equal to or above it.

Ask | Below 50% on growth? Entry `c1ccc(CCNc2c3ccccc3nc3ccccc23)cc1`
Reply | label 1

Ask | Another molecule: `C#CC#CC#CC#CC#CC#CC#CC#CC[C@@H]1OC[C@@H](COC(=O)O[C@@H](C(=O)O[C@H]2C[C@@]3(O)[C@@H](OC(=O)c4ccccc4)[C@@H]4[C@]5(OC(C)=O)CO[C@@H]5C[C@H](O)[C@@]4(C)C(=O)[C@H](OC(C)=O)C(=C2C)C3(C)C)[C@@H](NC(=O)c2ccccc2)c2ccccc2)O1`
Reply | label 0

Ask | Repeat for the following molecule: `O=S(=O)(NCCNc1nccc(-c2c(-c3cccc(O)c3)nc3occn23)n1)c1ccc(Br)cc1`
Reply | label 1

Ask | Param item: `O=C(CCCCCCN1CC(=O)N2[C@H](c3ccc(Cl)cc3)c3[nH]c4ccccc4c3C[C@@H]2C1=O)NO`
Reply | label 0

Ask | `CN(CCCNC(=O)Cc1ccc2ccc3cccc4ccc1c2c34)CCCNc1cc(-c2ccc3ccccc3c2)nc2ccccc12` ?
Reply | label 1

Ask | What do you get for `Nn1c(=O)c(=O)[nH]c2c(cnn2-c2ccccc2)c1=O` ?
Reply | label 0

Ask | Follow-up item: `Cc1ccc2nc(NC(=O)CSc3nc(-c4ccccc4)c(C#N)c4nnnn34)sc2c1`
Reply | label 0

Ask | // repeat for `COc1cc(C2C(C(=O)OCc3ccccc3)=C(C)NC(C)=C2C(=O)OCc2ccccc2)cc(OC)c1OC` and report
Reply | label 1

Ask | Ok, now `CCc1ccc(CCC(=O)Nc2ncc(Cc3ccccc3)s2)o1`
Reply | label 1
